Source: patent US20240124597A1

# assay system: T1, human-CD40-monomer protein (human, UniProt P25942 21-193, limits assumed)
# T1 construct: Soluble monomer generated in house, used as SPR analyte; also called hCD40; hCD40-monomer
# T1 sequence (P25942 21-193 limits assumed): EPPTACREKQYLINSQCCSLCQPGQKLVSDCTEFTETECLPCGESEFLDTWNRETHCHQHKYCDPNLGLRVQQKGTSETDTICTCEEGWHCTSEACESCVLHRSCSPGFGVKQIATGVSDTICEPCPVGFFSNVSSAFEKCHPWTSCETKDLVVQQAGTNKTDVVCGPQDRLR
# assay info: SPR, Ab captured on protein A, hCD40 monomer 500 and 50 nM, 1:1 fit; supernatant
# Procedure: Titer analysis was performed using Biolayer Interferometry (BLI) on an Octet RED instrument (Fortebio) by capturing antibodies from supernatant using protein A sensor tips and measuring capture response with respect to a standard curve obtained using a control antibody sample. SPR data were obtained by capturing antibodies on a protein A surface and testing the binding of 500 nM and 50 nM injections of human-CD40 analyte, using a BIAcore™ T200 instrument (GE Healthcare). […]
reported endpoint: kon (M⁻¹ s⁻¹)
Response body: numeric value in M⁻¹ s⁻¹, unit text excluded.

These solved cases illustrate the format of a correct answer.
[[record]]
binder = "Y12XX-hz11 (antibody, human IgG1, kappa, V domains shown, Humanized, IgG1-P238K; supernatant sample) VH: QVQLVQSGAEVKKPGSSVKVSCKASGYAFTSYWMHWVRQRPGQGLEWIGQINPSNGRSQYNEKFKTRVTITADKSTSTAYMELSSLRSEDTAVYYCARWGLQPFAYWGQGTLVTVSS VL: DIQMTQSPSSLSASVGDRVTITCKASQDVSTAVAWYQQKPGKAPKLLIYSASYRYTGVPSRFSGSGSGTDFTFTISSLQPEDIATYYCQQHYSTPWTFGGGTKVEIKR"
reported_endpoint = "kon"
reported = 180000

[[record]]
binder = "Y12XX-hz42-P238K (antibody, human IgG1, kappa, V domains shown, also called Vh-hz14;Vk-hz3) VH: QVQLVQSGAEVKKPGSSVKVSCKASGYAFTSYWMHWVRQAPGQGLEWMGQINPTTGRSQYNEKFKTRVTITADKSTSTAYMELSSLRSEDTAVYYCARWGLQPFAYWGQGTLVTVSS VL: EIVMTQSPATLSVSPGERATLSCKASQDVSTAVAWYQQKPGQAPRLLIYSASYRYTGIPARFSGSGSGTEFTLTISSLQSEDFAVYYCQQHYSTPWTFGGGTKVEIKR"
reported_endpoint = "kon"
reported = 240000


Task: Would you mind telling me what kon value was observed for Y12XX-hz39 (antibody, human IgG1, kappa, V domains shown, Humanized, IgG1-P238K; supernatant sample) VH: QVQLVQSGAEVKKPGSSVKVSCKASGYAFTSYWMHWVRQRPGQGLEWIGQINPSNGRSQYNEKFKTRVTITADKSTSTAYMELSSLRSEDTAVYYCARWGLQPFAYWGQGTLVTVSS VL: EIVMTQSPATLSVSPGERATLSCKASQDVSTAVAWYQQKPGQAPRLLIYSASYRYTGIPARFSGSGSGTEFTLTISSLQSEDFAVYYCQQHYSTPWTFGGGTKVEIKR ?
Output: 240000

Task: Would you mind telling me what kon value was observed for Y12XX-hz24 (antibody, human IgG1, kappa, V domains shown, Humanized, IgG1-P238K; supernatant sample) VH: QVQLVQSGAEVKKPGSSVKVSCKASGYAFTSYWMHWVRQRPGQGLEWMGQINPSNGRSQYNEKFKTRVTITADKSTSTAYMELSSLRSEDTAVYYCARWGLQPFAYWGQGTLVTVSS VL: DIQMTQSPSFLSASVGDRVTITCKASQDVSTAVAWYQQKPGKAPKLLIYSASYRYTGVPSRFSGSGSGTDFTLTISSLQPEDFATYYCQQHYSTPWTFGGGTKVEIKR ?
Output: 190000

Task: Would you mind telling me what kon value was observed for Y12XX-hz34 (antibody, human IgG1, kappa, V domains shown, Humanized, IgG1-P238K; supernatant sample) VH: QVQLVQSGAEVKKPGSSVKVSCKASGYAFTSYWMHWVRQRPGQGLEWIGYINPTTGYSAYNQKFKDKATLTADKSTSTAYMELNSLRSEDTAVYYCARWDPRPFAYWGQGTLVTVSS VL: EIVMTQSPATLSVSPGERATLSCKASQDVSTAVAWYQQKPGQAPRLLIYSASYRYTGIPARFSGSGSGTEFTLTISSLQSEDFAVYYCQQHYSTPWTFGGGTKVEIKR ?
Output: 370000
